Biological target: FmlHLD (Escherichia coli, UniProt P77588)
Construct: 6xHis (C); made in house; host or cells: E. coli C600, periplasm, pTRC99a
Sequence (P77588 25-182): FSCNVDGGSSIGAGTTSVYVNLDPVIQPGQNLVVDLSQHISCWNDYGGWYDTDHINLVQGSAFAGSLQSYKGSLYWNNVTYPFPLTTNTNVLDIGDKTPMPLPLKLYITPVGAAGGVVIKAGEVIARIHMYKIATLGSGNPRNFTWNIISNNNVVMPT
Test: biochemical
Type: binding, E. coli
Settings: read-out: % Inhibition at [μM] [100], compound at 100 μM; inhibition of FmlHLD binding to ds-BSM
Assign inhibition at 100 µM to each entry below.
Give bare numbers, in %.

In the examples that follow, each entry is paired with its recorded inhibition at 100 µM.
OC[C@H]1O[C@@H](Oc2cc3c(O)cc(O)cc3[o+]c2-c2ccc(O)cc2)[C@H](O)[C@@H](O)[C@H]1O [PelG, reference compound]	0.74
OC[C@H]1O[C@H](Oc2ccccc2-c2ccccc2)[C@H](O)[C@@H](O)[C@H]1O [Compound 113f1]	19.2

Let us examine a further case.
Please report the measured inhibition at 100 µM for COc1cc(-c2[o+]c3cc(O)cc(O)c3cc2O[C@@H]2O[C@H](CO)[C@H](O)[C@H](O)[C@H]2O)ccc1O [PeoG, reference compound] 3.64

---

Target: FmlHLD (Escherichia coli, UniProt P77588)
Construct: 6xHis (C); made in house; host or cells: E. coli C600, periplasm, pTRC99a
Assay: biochemical
Format: binding, E. coli
Conditions: read-out: PI(1) (average percent inhibition), compound at 1 μM; Table 4
Measured quantity: inhibition at 1 µM

In the examples that follow, each entry is paired with its recorded inhibition at 1 µM.
CC(=O)N[C@H]1[C@H](Oc2ccccc2-c2cccc(OS(C)(=O)=O)c2)O[C@H](CO)[C@H](O)[C@@H]1O [AM2078]	32.5%
CNC(=O)c1cccc(-c2ccccc2O[C@@H]2O[C@H](CO)[C@H](O)[C@H](O)[C@H]2O)c1 [AM2042]	16.6%
CC(=O)N[C@H]1[C@H](Oc2ccccc2-c2cccc(C(F)(F)F)c2)O[C@H](CO)[C@H](O)[C@@H]1O [AM2037]	15.7%

Let us examine a further case.
Answer briefly: inhibition at 1 µM recorded on FmlHLD (Escherichia coli, UniProt P77588) for CC(=O)N[C@H]1[C@H](Oc2ccccc2-c2cccc(S(C)(=O)=O)c2)O[C@H](CO)[C@H](O)[C@@H]1O [AM2059] 23.3%

---

Assign pKd to each entry below.
Molecular target: FmlHLD (Escherichia coli, UniProt P77588)
Construct: 6xHis (C); made in house; host or cells: E. coli C600, periplasm, pTRC99a
Experiment: biochemical
Format: binding, E. coli
Details: Kd
From the text: Bio-layer interferometry (BLI) was used to quantitate the binding affinity of select galactosides to FmlH. Thereafter, pins were dipped in PBS for 120 s and transferred to protein samples (varying concentration of FmlHLD or fixed concentration of FmlHLD with varying concentration of galactoside compounds) for association for 300-600 s.
Numbers only, as −log10 of the molar value.

In the examples that follow, each entry is paired with its recorded pKd.
OC[C@H]1O[C@@H](Oc2cccc3cccnc23)[C@H](O)[C@@H](O)[C@H]1O [Compound 8HQG, reference compound]	5.15
OC[C@H]1O[C@@H](Oc2cc3c(O)cc(O)cc3[o+]c2-c2ccc(O)c(O)c2)[C@H](O)[C@@H](O)[C@H]1O [CG, reference compound]	3.67
O=C(O)c1cccc(-c2ccccc2O[C@@H]2O[C@H](CO)[C@H](O)[C@H](O)[C@H]2O)c1 [Compound 200b]	5.68

Provide the reported pKd of each entry below, same order.
1. CC(=O)N[C@@H]1[C@@H](O[C@@H]2O[C@H](CO)[C@H](O)[C@H](O)[C@H]2O)[C@@H](O)[C@@H](CO)O[C@@H]1O [TF, Gal-β1-3-GalNAc-α, reference compound]
2. COc1ccccc1O[C@@H]1O[C@H](CO)[C@H](O)[C@H](O)[C@H]1O [Compound 149e]
3. O=c1c(O[C@@H]2O[C@H](CO)[C@H](O)[C@H](O)[C@H]2O)c(-c2ccc(O)c(O)c2)oc2cc(O)cc(O)c12 [QG, reference compound]
4. CC(=O)N[C@H]1[C@H](Oc2ccccc2-c2cccc(C(=O)O)c2)O[C@H](CO)[C@H](O)[C@@H]1O [Compound 200b-GalNAc]

1. 3.61
2. 5.19
3. 3.41
4. 7.05

---

Target: FmlHLD (Escherichia coli, UniProt P77588)
Construct: 6xHis (C); made in house; host or cells: E. coli C600, periplasm, pTRC99a
Experiment: biochemical
Format: binding, E. coli
Details: read-out: PI10 (percent inhibition), galactoside at 10 μM; mean with standard error of the mean
Assign inhibition at 10 µM to each entry below.
One number for each entry, in %.

In the examples that follow, each entry is paired with its recorded inhibition at 10 µM.
COc1cc(OC)cc(O[C@@H]2O[C@H](CO)[C@H](O)[C@H](O)[C@H]2O)c1	11.7
Cc1c(C)c2ccc(O[C@@H]3O[C@H](CO)[C@H](O)[C@H](O)[C@H]3O)cc2oc1=O	19.8
OC[C@H]1O[C@@H](Oc2cccc(-c3ccccc3)c2)[C@H](O)[C@@H](O)[C@H]1O	7.8
Cc1cc(=O)oc2cc(O[C@@H]3O[C@H](CO)[C@H](O)[C@H](O)[C@H]3O)ccc12	19.7
OC[C@H]1O[C@@H](Oc2ccccc2)[C@H](O)[C@@H](O)[C@H]1O [Compound 1β, phenyl β-galactoside]	15.5
CC(=O)N[C@H]1[C@H](Oc2ccccc2[N+](=O)[O-])O[C@H](CO)[C@H](O)[C@@H]1O	87
OC[C@H]1O[C@@H](Oc2cccc3cccnc23)[C@H](O)[C@@H](O)[C@H]1O	48.1
Nc1ccc(O[C@@H]2O[C@H](CO)[C@H](O)[C@H](O)[C@H]2O)cc1	9.8
OC[C@H]1O[C@H](Oc2ccc(-c3ccccc3)cc2)[C@H](O)[C@@H](O)[C@H]1O	22.6
CC(=O)N[C@H]1[C@H](Oc2ccccc2-c2cccc(C(=O)O)c2)O[C@H](CO)[C@H](O)[C@@H]1O	93

Provide the reported inhibition at 10 µM of each entry below, same order.
1. Cc1ccc(O[C@@H]2O[C@H](CO)[C@H](O)[C@H](O)[C@H]2O)cc1 [Compound 8β, 4-methylphenyl β-D-galactopyranoside]
2. OC[C@H]1O[C@@H](Oc2ccccc2Cl)[C@H](O)[C@@H](O)[C@H]1O [Compound 6β, 2-chlorophenyl β-D-galactopyranoside]
3. OC[C@H]1O[C@@H](Oc2ccccc2-c2ccccc2)[C@H](O)[C@@H](O)[C@H]1O
4. COc1ccccc1O[C@@H]1O[C@H](CO)[C@H](O)[C@H](O)[C@H]1O [Compound 5β, 2-methoxyphenyl β-D-galactopyranoside]

16.5
20.7
31
55.7

---

Assign inhibition at 10 µM to each entry below.
Target: FmlHLD (Escherichia coli, UniProt P77588)
Construct: 6xHis (C); made in house; host or cells: E. coli C600, periplasm, pTRC99a
Assay: biochemical
Assay type: binding, E. coli
Settings: read-out: % Inhibition at [μM] [10], compound at 10 μM; inhibition of FmlHLD binding to ds-BSM
Answers are plain numbers, in %.

In the examples that follow, each entry is paired with its recorded inhibition at 10 µM.
O=[N+]([O-])c1ccc(O[C@@H]2O[C@H](CO)[C@H](O)[C@H](O)[C@H]2O)cc1 [p-Nitrophenyl Gal, reference compound]	13.7
CC(=O)N[C@H]1[C@H](Oc2ccccc2[N+](=O)[O-])O[C@H](CO)[C@H](O)[C@@H]1O	87.2
OC[C@H]1O[C@@H](Oc2cccc(-c3ccccc3)c2)[C@H](O)[C@@H](O)[C@H]1O	7.8

Provide the reported inhibition at 10 µM of each entry below, same order.
1. Cc1ccccc1O[C@@H]1O[C@H](CO)[C@H](O)[C@H](O)[C@H]1O [Compound 135b]
2. OC[C@H]1O[C@@H](Oc2ccccc2Cl)[C@H](O)[C@@H](O)[C@H]1O [Compound 154c]
3. Cc1ccc(O[C@@H]2O[C@H](CO)[C@H](O)[C@H](O)[C@H]2O)cc1 [Compound 153a]

1. 28.2
2. 20.7
3. 16.5

Please report the measured inhibition at 10 µM for O=[N+]([O-])c1ccccc1O[C@@H]1O[C@H](CO)[C@H](O)[C@H](O)[C@H]1O [ONPG, o-nitrophenyl β-galactoside, reference compound] 31.1

---

Biological target: FmlHLD (Escherichia coli, UniProt P77588)
Construct: 6xHis (C); made in house; host or cells: E. coli C600, periplasm, pTRC99a
Test: biochemical
Format: binding, E. coli
Conditions: read-out: % Inhibition at [μM] [100], compound at 100 μM; inhibition of FmlHLD binding to ds-BSM
Assign inhibition at 100 µM to each entry below.
Numbers only, in %.

In the examples that follow, each entry is paired with its recorded inhibition at 100 µM.
Cc1cc(=O)oc2cc(O[C@@H]3O[C@H](CO)[C@H](O)[C@H](O)[C@H]3O)ccc12 [MUG, reference compound]	85.2
Nc1ccc(O[C@@H]2O[C@H](CO)[C@H](O)[C@H](O)[C@H]2O)cc1 [4-amino-phenyl Gal, reference compound]	65.1
OC[C@H]1O[C@@H](Oc2ccc3ccccc3c2)[C@H](O)[C@@H](O)[C@H]1O [2-napthyl Gal, reference compound]	78.8

Provide the reported inhibition at 100 µM of each entry below, same order.
1. O=C(O)c1cccc(-c2ccccc2O[C@@H]2O[C@H](CO)[C@H](O)[C@H](O)[C@H]2O)c1 [Compound 200b]
2. Cc1ccccc1O[C@@H]1O[C@H](CO)[C@H](O)[C@H](O)[C@H]1O [Compound 135b]
3. CC(=O)N[C@@H]1[C@@H](O)[C@@H](O)[C@@H](CO)O[C@H]1O (stereo in doubt) [GalNAc, N-acetylgalactosamine, reference compound]
4. CC(=O)N[C@H]1[C@H](Oc2ccccc2-c2cccc(C(=O)O)c2)O[C@H](CO)[C@H](O)[C@@H]1O [Compound 200b-GalNAc]

1. 99
2. 87.3
3. 28.4
4. 99.5
